SYSTEM_TESTED: T1, human GM-CSFRα, full length on cells (human, UniProt P15509 23-400)
T1 sequence: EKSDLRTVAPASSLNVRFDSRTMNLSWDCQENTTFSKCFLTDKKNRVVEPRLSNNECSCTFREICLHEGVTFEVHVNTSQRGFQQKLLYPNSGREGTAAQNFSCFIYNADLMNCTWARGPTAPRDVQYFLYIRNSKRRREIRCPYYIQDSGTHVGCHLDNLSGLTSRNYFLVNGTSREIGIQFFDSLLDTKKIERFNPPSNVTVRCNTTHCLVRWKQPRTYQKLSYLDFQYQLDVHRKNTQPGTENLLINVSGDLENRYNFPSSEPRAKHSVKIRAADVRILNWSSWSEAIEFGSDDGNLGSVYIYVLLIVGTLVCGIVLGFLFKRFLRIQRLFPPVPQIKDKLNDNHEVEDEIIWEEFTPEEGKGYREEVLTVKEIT
PROCEDURE_DETAILS: cell-based or functional assay
Provide the recorded IC50, TF-1 cell proliferation for the entries that follow.
Write the value in µg/mL as a bare number.

IC50, TF-1 cell proliferation measured on E35-scFv LY32N (scFv, V domains shown) VH: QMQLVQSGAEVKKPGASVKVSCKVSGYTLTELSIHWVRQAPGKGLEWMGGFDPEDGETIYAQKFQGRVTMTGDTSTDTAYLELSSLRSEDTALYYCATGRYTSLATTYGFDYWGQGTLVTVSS VL: EIVMTQSPATLSLSPGERATLSCRASQSVSSNLAWYQQKPGQAPRLLIYGASSRATGIPDRFSGSGSGTDFTLTISRLEPEDFAVYYCQQYDNWPYTFGQGTKLEIK = 2.05

IC50, TF-1 cell proliferation measured on E35-scFv LN93F (scFv, V domains shown) VH: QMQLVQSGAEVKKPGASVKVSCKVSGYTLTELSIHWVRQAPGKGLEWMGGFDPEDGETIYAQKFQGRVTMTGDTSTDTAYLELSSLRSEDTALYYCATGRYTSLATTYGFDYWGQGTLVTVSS VL: EIVMTQSPATLSLSPGERATLSCRASQSVSSYLAWYQQKPGQAPRLLIYGASSRATGIPDRFSGSGSGTDFTLTISRLEPEDFAVYYCQQYDFWPYTFGQGTKLEIK = 0.3

IC50, TF-1 cell proliferation measured on E35-scFv LG50T (scFv, V domains shown) VH: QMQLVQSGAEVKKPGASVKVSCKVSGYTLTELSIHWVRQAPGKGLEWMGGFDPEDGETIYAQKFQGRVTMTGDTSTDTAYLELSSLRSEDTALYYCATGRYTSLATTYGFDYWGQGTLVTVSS VL: EIVMTQSPATLSLSPGERATLSCRASQSVSSYLAWYQQKPGQAPRLLIYTASSRATGIPDRFSGSGSGTDFTLTISRLEPEDFAVYYCQQYDNWPYTFGQGTKLEIK = 0.25
